Data origin, for the record: ChEMBL document CHEMBL3132856

Target: Phosphatidylinositol 4,5-bisphosphate 3-kinase catalytic subunit alpha isoform (Homo sapiens, UniProt P42336)
Sequence (P42336 whole entry, canonical isoform): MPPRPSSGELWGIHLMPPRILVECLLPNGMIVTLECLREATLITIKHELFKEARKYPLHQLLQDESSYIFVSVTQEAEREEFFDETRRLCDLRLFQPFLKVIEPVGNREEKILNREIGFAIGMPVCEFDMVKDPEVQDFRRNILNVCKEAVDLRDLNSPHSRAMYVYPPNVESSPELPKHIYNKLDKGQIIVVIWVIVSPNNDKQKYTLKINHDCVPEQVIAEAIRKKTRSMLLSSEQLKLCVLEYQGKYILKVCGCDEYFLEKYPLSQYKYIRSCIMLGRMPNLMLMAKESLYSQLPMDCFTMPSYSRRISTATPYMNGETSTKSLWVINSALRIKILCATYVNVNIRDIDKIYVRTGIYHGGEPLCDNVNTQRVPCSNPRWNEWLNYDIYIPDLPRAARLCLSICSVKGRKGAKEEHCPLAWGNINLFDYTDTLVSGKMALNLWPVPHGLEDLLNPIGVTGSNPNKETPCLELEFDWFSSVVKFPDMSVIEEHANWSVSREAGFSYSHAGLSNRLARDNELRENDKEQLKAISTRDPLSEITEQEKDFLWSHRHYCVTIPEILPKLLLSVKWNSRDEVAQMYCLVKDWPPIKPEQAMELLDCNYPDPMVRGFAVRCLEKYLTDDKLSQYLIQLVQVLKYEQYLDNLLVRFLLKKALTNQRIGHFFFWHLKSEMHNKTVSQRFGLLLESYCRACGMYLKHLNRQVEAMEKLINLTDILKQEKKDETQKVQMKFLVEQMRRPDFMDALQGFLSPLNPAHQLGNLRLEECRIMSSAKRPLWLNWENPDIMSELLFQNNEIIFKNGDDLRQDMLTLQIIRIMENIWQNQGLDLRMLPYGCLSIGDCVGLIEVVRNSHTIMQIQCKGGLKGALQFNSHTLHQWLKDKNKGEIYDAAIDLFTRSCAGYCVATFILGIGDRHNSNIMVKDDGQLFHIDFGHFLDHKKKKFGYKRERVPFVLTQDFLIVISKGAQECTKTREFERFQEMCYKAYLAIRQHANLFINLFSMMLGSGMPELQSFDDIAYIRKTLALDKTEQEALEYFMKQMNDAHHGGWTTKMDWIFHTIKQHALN
Assay: Inhibition of PI3Kalpha (unknown origin)
readout name: IC50

q: Find the recorded IC50 belonging to Cc1ccc([N+](=O)[O-])cc1S(=O)(=O)C/C=C/c1cnn2ccc(Br)cc12 and report it.
a: 140 nM

q: Find the recorded IC50 belonging to N#Cc1ccc(F)c([S+]([O-])c2nc(-c3cnn4ccc(Br)cc34)cs2)c1 (centres undefined) and report it.
a: 300 nM

q: Find the recorded IC50 belonging to Cc1ccccc1[S+]([O-])c1nc(-c2cnn3ccc(Br)cc23)cs1 (centres undefined) and report it.
a: 1280 nM

q: Find the recorded IC50 belonging to O=[N+]([O-])c1cccc([S+]([O-])c2nc(-c3cnn4ccc(Br)cc34)cs2)c1 (centres undefined) and report it.
a: 740 nM

q: Find the recorded IC50 belonging to Cc1ccc([N+](=O)[O-])cc1S(=O)(=O)Cc1nc(-c2cnn3ccc(Br)cc23)cs1 and report it.
a: 240 nM

q: Find the recorded IC50 belonging to Cc1ccc([N+](=O)[O-])cc1C(=O)NC1CN(Cc2cnn3ccc(C#N)cc23)C1 and report it.
a: > 1000 nM

q: Find the recorded IC50 belonging to N#Cc1cc(S(=O)(=O)c2nc(-c3cnn4ccc(Br)cc34)cs2)ccc1F and report it.
a: 170 nM

q: Find the recorded IC50 belonging to Cc1ccc([N+](=O)[O-])cc1S(=O)(=O)N[C@H]1CCN(Cc2cnn3ccc(C#N)cc23)C1 and report it.
a: > 1000 nM

q: Find the recorded IC50 belonging to N#Cc1ccc(F)c(S(=O)(=O)c2nc(-c3cnn4ccc(Br)cc34)cs2)c1 and report it.
a: 720 nM
